Measured values drawn from paper PMC12660843 for this set.

Target: 3-pTza peptide (Biotin-AminocaproicAcid-A.G.A.G.3-pTza.A.G.A.G)
Experiment: BLI; biotinylated peptide captured on streptavidin biosensors at 20 nM; IgG in solution at 20-200 nM; Octet HTX; 1x HBS-T, 1% BSA
The binders listed here are annotated with their koff.
The reply should be a number in s⁻¹, with the unit left off.

The cases that follow already have their koff on record.
hSC44.31 IgG (antibody, V domains shown) VH: EVQLVESGGGLVQPGGSLRLSCTASGFSIDSYGFSWVRQAPGKGLEHIGYLTAGGRAFYASWAKSRSTITRNTNENTVTLKMNSLRAEDTAVYYCAKLGTGTPFAIWGQGTLVTVSS VL: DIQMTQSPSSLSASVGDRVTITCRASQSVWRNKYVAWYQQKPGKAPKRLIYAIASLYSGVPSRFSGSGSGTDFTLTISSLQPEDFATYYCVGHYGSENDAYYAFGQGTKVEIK	3.98e-05
hSC44.1 IgG (antibody, V domains shown) VH: EVQLVESGGGLVQPGGSLRLSCTASGFSIDSYGFSWVRQAPGKGLEHIGYLTAGGRAFYASWAKSRSTITRNTNENTVTLKMNSLRAEDTAVYYCAKLGTGSPIAIWGQGTLVTVSS VL: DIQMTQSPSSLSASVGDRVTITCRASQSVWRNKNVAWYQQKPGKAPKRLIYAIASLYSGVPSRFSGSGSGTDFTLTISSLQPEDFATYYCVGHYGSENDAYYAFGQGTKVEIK	8.32e-05

Give koff for the following binder: hSC44.3 IgG (antibody, V domains shown) VH: EVQLVESGGGLVQPGGSLRLSCTASGFSIDSYGFSWVRQAPGKGLEHIGYLTAGGRAFYASWAKSRSTITRNTNENTVTLKMNSLRAEDTAVYYCAKIGSGSPVAIWG VL: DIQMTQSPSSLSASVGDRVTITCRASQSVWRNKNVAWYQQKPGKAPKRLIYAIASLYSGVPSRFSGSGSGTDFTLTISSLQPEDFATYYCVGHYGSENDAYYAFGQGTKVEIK 1.43e-05
